Just for reference, ChEMBL document CHEMBL5104214 is where these values come from.

# tgt: Cytochrome P450 3A4 (Homo sapiens, UniProt P08684)
# Sequence (P08684 whole entry): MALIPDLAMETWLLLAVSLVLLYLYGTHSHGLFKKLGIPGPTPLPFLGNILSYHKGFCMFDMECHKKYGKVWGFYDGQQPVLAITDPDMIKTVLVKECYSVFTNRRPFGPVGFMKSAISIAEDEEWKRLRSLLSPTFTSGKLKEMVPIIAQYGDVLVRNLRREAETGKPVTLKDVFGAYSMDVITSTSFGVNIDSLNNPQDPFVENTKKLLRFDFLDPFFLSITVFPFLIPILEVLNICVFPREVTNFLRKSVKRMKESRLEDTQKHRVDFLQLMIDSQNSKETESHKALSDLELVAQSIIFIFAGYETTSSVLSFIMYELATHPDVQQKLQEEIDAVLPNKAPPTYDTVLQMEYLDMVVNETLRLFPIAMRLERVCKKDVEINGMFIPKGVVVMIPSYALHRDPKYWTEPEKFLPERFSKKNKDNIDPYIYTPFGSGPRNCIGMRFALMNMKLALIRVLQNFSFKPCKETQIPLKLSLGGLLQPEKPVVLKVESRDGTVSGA
pIC50: −log10 of the molar value.

[
  {
    "smiles record": "CC(C)(C)c1ccc(-c2nnc(Nc3ccc(Cl)cc3)o2)cc1",
    "pIC50": "< 1.52"
  }
]

* * *

# Test system: [Candida] auris
# measurement notes: Antifungal activity against Candida auris clinical isolate assessed as inhibition of fungal growth incubated for 24 hrs by microdilution assay
# Type: functional
# experimental setup: Candidozyma auris

[
  {
    "molecule": "OC(Cn1cncn1)(Cn1cncn1)c1ccc(F)cc1F [FLUCONAZOLE]",
    "MIC50 [µg/mL]": 600
  },
  {
    "molecule": "CC(C)c1ccc(-c2nnc(Nc3ccc(F)cc3)o2)cc1",
    "MIC50 [µg/mL]": 2.08
  },
  {
    "molecule": "COc1cccc(Nc2nnc(-c3ccc(C(C)(C)C)cc3)o2)c1",
    "MIC50 [µg/mL]": 30
  },
  {
    "molecule": "CC(C)(C)c1ccc(-c2nnc(Nc3ccc(Cl)cc3)o2)cc1",
    "MIC50 [µg/mL]": 0.8
  },
  {
    "molecule": "COc1cccc(Nc2nnc(-c3ccc(C(C)C)cc3)o2)c1",
    "MIC50 [µg/mL]": 12
  }
]

* * *

# tgt: Lanosterol 14-alpha demethylase (Candida albicans (strain SC5314 / ATCC MYA-2876) (Yeast))
# Sequence (P10613 whole entry): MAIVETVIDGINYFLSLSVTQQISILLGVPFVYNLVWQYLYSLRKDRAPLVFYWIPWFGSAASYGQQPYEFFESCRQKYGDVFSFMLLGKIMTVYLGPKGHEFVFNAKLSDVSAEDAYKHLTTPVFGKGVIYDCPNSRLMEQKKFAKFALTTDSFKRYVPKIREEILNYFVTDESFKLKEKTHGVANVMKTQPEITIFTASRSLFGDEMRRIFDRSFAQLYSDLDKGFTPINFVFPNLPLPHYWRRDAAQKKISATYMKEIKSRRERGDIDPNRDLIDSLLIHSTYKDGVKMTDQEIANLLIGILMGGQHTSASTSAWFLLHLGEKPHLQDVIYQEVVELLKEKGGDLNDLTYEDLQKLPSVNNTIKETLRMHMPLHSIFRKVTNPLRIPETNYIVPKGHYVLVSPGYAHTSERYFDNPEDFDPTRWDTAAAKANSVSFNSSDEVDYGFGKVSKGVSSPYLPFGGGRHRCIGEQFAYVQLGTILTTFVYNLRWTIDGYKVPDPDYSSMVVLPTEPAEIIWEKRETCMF
# measurement notes: Inhibition of candida albicans CYP51 using 7-ethoxyresorufin as fluorescent substrate incubated for 10 mins in the presence of NADPH by fluorescence based spectroscopic microtiter plate reader analysis
pIC50: −log10 of the molar value.
readout: pIC50

[
  {
    "compound": "CC(C)(C)c1ccc(-c2nnc(Nc3ccc(Cl)cc3)o2)cc1",
    "tgt": "Lanosterol 14-alpha demethylase (Candida albicans (strain SC5314 / ATCC MYA-2876) (Yeast))",
    "endpoint value": 5.56
  },
  {
    "compound": "OC(Cn1cncn1)(Cn1cncn1)c1ccc(F)cc1F [FLUCONAZOLE]",
    "tgt": "Lanosterol 14-alpha demethylase (Candida albicans (strain SC5314 / ATCC MYA-2876) (Yeast))",
    "endpoint value": 4.54
  }
]
